Test system: large crabgrass (Digitaria sanguinalis)
assay text: Test A postemergence
Assay type: in vivo
measurement context: 125 g ai/ha, 0 to 100 scale, 0 no effect, 100 complete control, approx. 10 days
# Lookup of reported Plant response rating, Crabgrass, Large keyed by entry

Reference set, count: 6
{"columns": ["molecule", "Plant response rating, Crabgrass, Large"],
 "data": [
  ["CCCCn1c(-c2ccccc2)cnc(C(=O)C2=C(O)CCCC2=O)c1=O", 10],
  ["COCCn1c(-c2cc(F)cc(F)c2)c(Cl)nc(C(=O)C2=C(O)CCCC2=O)c1=O", 80],
  ["COCCn1c(-c2cccc(F)c2)c(Cl)nc(C(=O)C2=C(O)CCCC2=O)c1=O [Compound 4]", 80],
  ["COCCn1c(-c2cccc(F)c2)c(Cl)nc(C(=O)C2=C(O)CCCC2=O)c1=O [Compound 7]", 0],
  ["COCCCn1c(-c2cc(F)cc(F)c2)c(Cl)nc(C(=O)C2=C(O)CCCC2=O)c1=O", 30],
  ["COCCn1c(-c2cc(F)cc(F)c2)cnc(C(=O)C2=C(O)CCCC2=O)c1=O", 90]
]}

Now look at this one.
query: Could you share which Plant response rating, Crabgrass, Large value was measured for O=C1CCCC(O)=C1C(=O)c1nc(Cl)c(-c2cccc(F)c2)n(C2CCCCC2)c1=O ?
result: 0

====

Tested on: velvetleaf (Abutilon theophrasti)
assay text: Test A preemergence
Format: in vivo
measurement context: 125 g ai/ha, 0 to 100 scale, 0 no effect, 100 complete control, approx. 10 days
assay endpoint: Plant response rating, Velvetleaf
Lab note: record the figure alone, no unit after it.

{"columns": ["compound", "Plant response rating, Velvetleaf"],
 "data": [
  ["COCCn1c(-c2cc(F)cc(F)c2)cnc(C(=O)C2=C(O)CCCC2=O)c1=O [Compound 5]", 70],
  ["COCCn1c(-c2cccc(F)c2)c(Cl)nc(C(=O)C2=C(O)CCCC2=O)c1=O [Compound 7]", 0],
  ["COCCn1c(-c2cc(F)cc(F)c2)c(Cl)nc(C(=O)C2=C(O)CCCC2=O)c1=O [Compound 6]", 50],
  ["CCCCn1c(-c2ccccc2)cnc(C(=O)C2=C(O)CCCC2=O)c1=O [Compound 1]", 50],
  ["O=C1CCCC(O)=C1C(=O)c1nc(Cl)c(-c2cccc(F)c2)n(C2CCCCC2)c1=O [Compound 2]", 0],
  ["COCCn1c(-c2cccc(F)c2)c(Cl)nc(C(=O)C2=C(O)CCCC2=O)c1=O [Compound 4]", 40]
]}

Now look at this one.
query: Could you share which Plant response rating, Velvetleaf value was measured for COCCCn1c(-c2cc(F)cc(F)c2)c(Cl)nc(C(=O)C2=C(O)CCCC2=O)c1=O [Compound 8] ?
result: 0

====

Tested on: barnyardgrass (Echinochloa crus-galli)
assay text: Test A preemergence
Type: in vivo
measurement context: 125 g ai/ha, 0 to 100 scale, 0 no effect, 100 complete control, approx. 10 days
# Lookup of reported Plant response rating, Barnyardgrass keyed by entry
Lab note: record the figure alone, no unit after it.

{"columns": ["compound", "test result"],
 "data": [
  ["COCCn1c(-c2cc(F)cc(F)c2)cnc(C(=O)C2=C(O)CCCC2=O)c1=O", 50]
]}

query: Could you share which Plant response rating, Barnyardgrass value was measured for COCCCn1c(-c2cc(F)cc(F)c2)c(Cl)nc(C(=O)C2=C(O)CCCC2=O)c1=O ?
result: 10

query: Could you share which Plant response rating, Barnyardgrass value was measured for O=C1CCCC(O)=C1C(=O)c1nc(Cl)c(-c2cccc(F)c2)n(C2CCCCC2)c1=O ?
result: 0

query: Could you share which Plant response rating, Barnyardgrass value was measured for COCCn1c(-c2cccc(F)c2)c(Cl)nc(C(=O)C2=C(O)CCCC2=O)c1=O [Compound 4] ?
result: 0

query: Could you share which Plant response rating, Barnyardgrass value was measured for CCCCn1c(-c2ccccc2)cnc(C(=O)C2=C(O)CCCC2=O)c1=O ?
result: 0

query: Could you share which Plant response rating, Barnyardgrass value was measured for COCCn1c(-c2cccc(F)c2)c(Cl)nc(C(=O)C2=C(O)CCCC2=O)c1=O [Compound 7] ?
result: 0

query: Could you share which Plant response rating, Barnyardgrass value was measured for COCCn1c(-c2cc(F)cc(F)c2)c(Cl)nc(C(=O)C2=C(O)CCCC2=O)c1=O ?
result: 20
